Ref: patent US6849601B1

ASSAYED SYSTEM: T1, hamster α1B-adrenoceptor (hamster), P18841
T1 chain: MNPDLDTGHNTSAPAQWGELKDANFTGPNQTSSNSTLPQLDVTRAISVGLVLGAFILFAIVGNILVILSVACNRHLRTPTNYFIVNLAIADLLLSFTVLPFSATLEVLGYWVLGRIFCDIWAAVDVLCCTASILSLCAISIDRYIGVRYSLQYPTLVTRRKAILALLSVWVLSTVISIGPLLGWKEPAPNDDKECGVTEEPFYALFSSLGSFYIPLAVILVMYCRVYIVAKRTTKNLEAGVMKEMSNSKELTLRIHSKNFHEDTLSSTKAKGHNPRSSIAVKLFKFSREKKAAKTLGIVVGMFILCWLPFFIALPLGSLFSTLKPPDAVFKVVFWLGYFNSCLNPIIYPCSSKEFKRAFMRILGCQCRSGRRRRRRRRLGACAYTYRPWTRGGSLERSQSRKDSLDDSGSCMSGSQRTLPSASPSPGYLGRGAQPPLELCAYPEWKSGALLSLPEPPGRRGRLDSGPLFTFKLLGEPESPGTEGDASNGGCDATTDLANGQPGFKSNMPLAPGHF
PROPERTY MEASURED: pKi
API: returns pKi as number; meaning -log10 of concentration in mol/L.

Problem: Recorded pKi for FNWRCCLIPACRRNHKKFC (modifications not checked) [ρ-TIA] , please?
Solution: 7.70
